Catalogue of log10 of EC50 values
target: Peroxisome proliferator-activated receptor gamma (Homo sapiens, UniProt P37231)
Sequence (P37231 whole entry): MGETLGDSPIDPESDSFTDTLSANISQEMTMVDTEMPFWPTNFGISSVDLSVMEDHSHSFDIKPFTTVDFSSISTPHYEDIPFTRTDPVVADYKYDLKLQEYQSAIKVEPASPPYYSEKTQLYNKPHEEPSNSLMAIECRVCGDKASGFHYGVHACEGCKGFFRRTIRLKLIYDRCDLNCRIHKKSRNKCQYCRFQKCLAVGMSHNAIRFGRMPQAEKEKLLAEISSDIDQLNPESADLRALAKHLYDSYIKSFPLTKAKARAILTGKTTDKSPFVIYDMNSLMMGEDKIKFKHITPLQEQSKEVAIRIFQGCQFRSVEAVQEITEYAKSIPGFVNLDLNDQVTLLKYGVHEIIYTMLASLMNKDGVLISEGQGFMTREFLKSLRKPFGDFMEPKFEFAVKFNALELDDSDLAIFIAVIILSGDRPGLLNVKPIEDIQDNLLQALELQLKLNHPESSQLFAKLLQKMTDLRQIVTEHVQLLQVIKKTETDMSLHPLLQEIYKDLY
Please keep in mind that the values are log10 of EC50 expressed in nM.

Cc1oc(-c2ccccc2)nc1CCOc1ccc(C[C@@]2(C(=O)O)CCOCCO2)cc1: 1.38
Cc1oc(-c2ccccc2)nc1CCOc1ccc(C[C@@](O)(C(=O)O)c2ccccc2C(=O)c2ccccc2)cc1: -0.47
Cc1sc(N2CCN(C)CC2)nc1CCOc1ccc(C[C@@](O)(C(=O)O)c2ccccc2C(=O)c2ccccc2)cc1: 0.11

log10 of EC50 for `COC(=O)c1ccccc1[C@@](O)(Cc1ccc(OCCc2nc(-c3ccccc3)oc2C)cc1)C(=O)O` is -0.15

Value of measured log10 of EC50 for the entry `Cc1oc(-c2ccccc2)nc1CCOc1ccc(C[C@]2(C(=O)O)C=CC=CO2)cc1` : 1.30

The molecule identified as `Cc1sc(-c2ccccc2)nc1CCOc1ccc(C[C@@](O)(C(=O)O)c2ccccc2C(=O)c2ccccc2)cc1` registered its log10 of EC50 at -1.00
